procedure details: Observed solubility of compound of formula (I) besylate in solvents
Format: physicochemical
conditions used: organic solvent or mixture; Ethanol; approximate
recorded endpoint: solubility (mg/mL)
Return type: number; implicit unit mg/mL.

Which solubility is reported for this molecule? COC(=O)CC[C@@H]1N=C(c2ccccn2)c2cc(Br)ccc2-n2c(C)cnc21.O=S(=O)(O)c1ccccc1 [compound of formula (I) besylate]
100

====

procedure details: Observed solubility of compound of formula (I) besylate in solvents
Type: physicochemical
conditions used: organic solvent or mixture; Chloroform; approximate
recorded endpoint: solubility

So what does the record say about solubility for COC(=O)CC[C@@H]1N=C(c2ccccn2)c2cc(Br)ccc2-n2c(C)cnc21.O=S(=O)(O)c1ccccc1 [compound of formula (I) besylate] ?
< 400 µg/mL

====

procedure details: Observed solubility of compound of formula (I) besylate in solvents
Type: physicochemical
conditions used: organic solvent or mixture; Dimethylacetamide; approximate
recorded endpoint: solubility (mg/mL)
Write the value in mg/mL as a bare number.

Recorded solubility for COC(=O)CC[C@@H]1N=C(c2ccccn2)c2cc(Br)ccc2-n2c(C)cnc21.O=S(=O)(O)c1ccccc1 [compound of formula (I) besylate] , please?
200

====

procedure details: Observed solubility of compound of formula (I) besylate in solvents
Format: physicochemical
conditions used: organic solvent or mixture; 1,2-ethanediol; approximate
Text: The compound also has an excess of Hydrogen bond acceptors and therefore will be suitably partnered by Hydrogen bond donating solvents. It is thus expected that the compound will prefer solubilisation in a range of polar organic solvents such as the alcohols, particularly those which provide a partially lipophillic, Hydrogen bond donating environment. This has been borne out by experimental evidence (details of solvents used are given in Example 8): […]
recorded endpoint: solubility (mg/mL)
Respond with the bare value in mg/mL.

What does the record list as solubility for COC(=O)CC[C@@H]1N=C(c2ccccn2)c2cc(Br)ccc2-n2c(C)cnc21.O=S(=O)(O)c1ccccc1 [compound of formula (I) besylate] ?
60

====

procedure details: Observed solubility of compound of formula (I) besylate in solvents
Assay type: physicochemical
conditions used: Water; approximate
Source text: The compound also has an excess of Hydrogen bond acceptors and therefore will be suitably partnered by Hydrogen bond donating solvents. It is thus expected that the compound will prefer solubilisation in a range of polar organic solvents such as the alcohols, particularly those which provide a partially lipophillic, Hydrogen bond donating environment. This has been borne out by experimental evidence (details of solvents used are given in Example 8): […]
recorded endpoint: solubility (µg/mL)
Just the number please, in µg/mL, no unit attached.

I am curious: what solubility value has been reported for COC(=O)CC[C@@H]1N=C(c2ccccn2)c2cc(Br)ccc2-n2c(C)cnc21.O=S(=O)(O)c1ccccc1 [compound of formula (I) besylate] ?
2000

====

procedure details: Observed solubility of compound of formula (I) besylate in solvents
Format: physicochemical
conditions used: organic solvent or mixture; Ethyl acetate; approximate
recorded endpoint: solubility (µg/mL)
Respond numerically; units are µg/mL and should not be typed.

Find the recorded solubility belonging to COC(=O)CC[C@@H]1N=C(c2ccccn2)c2cc(Br)ccc2-n2c(C)cnc21.O=S(=O)(O)c1ccccc1 [compound of formula (I) besylate] and report it.
200

====

procedure details: Observed solubility of compound of formula (I) besylate in solvents
Assay type: physicochemical
conditions used: organic solvent or mixture; Acetonitrile; approximate
recorded endpoint: solubility

State the recorded solubility for this entry: COC(=O)CC[C@@H]1N=C(c2ccccn2)c2cc(Br)ccc2-n2c(C)cnc21.O=S(=O)(O)c1ccccc1 [compound of formula (I) besylate]
> 20 mg/mL

====

procedure details: Observed solubility of compound of formula (I) besylate in solvents
Format: physicochemical
conditions used: organic solvent or mixture; Hexafluoropropan-2-ol; approximate
Description: The compound also has an excess of Hydrogen bond acceptors and therefore will be suitably partnered by Hydrogen bond donating solvents. It is thus expected that the compound will prefer solubilisation in a range of polar organic solvents such as the alcohols, particularly those which provide a partially lipophillic, Hydrogen bond donating environment. This has been borne out by experimental evidence (details of solvents used are given in Example 8): […]
recorded endpoint: solubility

Fill blank: measured solubility of the molecule COC(=O)CC[C@@H]1N=C(c2ccccn2)c2cc(Br)ccc2-n2c(C)cnc21.O=S(=O)(O)c1ccccc1 [compound of formula (I) besylate] is ____.
> 700 mg/mL

====

procedure details: Observed solubility of compound of formula (I) besylate in solvents
Type: physicochemical
conditions used: organic solvent or mixture; Acetone; approximate
recorded endpoint: solubility (µg/mL)
Your answer is read as µg/mL, so omit the unit and give the number.

Please look up its solubility: COC(=O)CC[C@@H]1N=C(c2ccccn2)c2cc(Br)ccc2-n2c(C)cnc21.O=S(=O)(O)c1ccccc1 [compound of formula (I) besylate]
2000

====

procedure details: Observed solubility of compound of formula (I) besylate in solvents
Assay type: physicochemical
conditions used: organic solvent or mixture; 2-methoxyethanol; approximate
recorded endpoint: solubility (mg/mL)
Give the value, in units of mg/mL, as a plain number.

So what does the record say about solubility for COC(=O)CC[C@@H]1N=C(c2ccccn2)c2cc(Br)ccc2-n2c(C)cnc21.O=S(=O)(O)c1ccccc1 [compound of formula (I) besylate] ?
167

====

procedure details: Observed solubility of compound of formula (I) besylate in solvents
Assay type: physicochemical
conditions used: organic solvent or mixture; Tetrahydrofuran; approximate
Excerpt: The compound also has an excess of Hydrogen bond acceptors and therefore will be suitably partnered by Hydrogen bond donating solvents. It is thus expected that the compound will prefer solubilisation in a range of polar organic solvents such as the alcohols, particularly those which provide a partially lipophillic, Hydrogen bond donating environment. This has been borne out by experimental evidence (details of solvents used are given in Example 8): […]
recorded endpoint: solubility
Answer format reminder: number followed by unit.

Tell me the measured solubility of COC(=O)CC[C@@H]1N=C(c2ccccn2)c2cc(Br)ccc2-n2c(C)cnc21.O=S(=O)(O)c1ccccc1 [compound of formula (I) besylate] , please.
2500 µg/mL

====

procedure details: Observed solubility of compound of formula (I) besylate in solvents
Type: physicochemical
conditions used: organic solvent or mixture; 1,4-dioxan; approximate
recorded endpoint: solubility (µg/mL)
Unit µg/mL implied. Number only.

I would be grateful if you could share the reported solubility for COC(=O)CC[C@@H]1N=C(c2ccccn2)c2cc(Br)ccc2-n2c(C)cnc21.O=S(=O)(O)c1ccccc1 [compound of formula (I) besylate] .
1000

====

procedure details: Observed solubility of compound of formula (I) besylate in solvents
Assay type: physicochemical
conditions used: organic solvent or mixture; Formamide; approximate
recorded endpoint: solubility (mg/mL)
Kindly answer with a numeric value in mg/mL, unit omitted.

Consider the molecule shown here: COC(=O)CC[C@@H]1N=C(c2ccccn2)c2cc(Br)ccc2-n2c(C)cnc21.O=S(=O)(O)c1ccccc1 [compound of formula (I) besylate] What is its recorded solubility?
350

====

procedure details: Observed solubility of compound of formula (I) besylate in solvents
Format: physicochemical
conditions used: organic solvent or mixture; 2,2,2-trifluoroethanol; approximate
recorded endpoint: solubility (mg/mL)
# output: bare number, implied unit mg/mL

Value lookup for solubility; key = COC(=O)CC[C@@H]1N=C(c2ccccn2)c2cc(Br)ccc2-n2c(C)cnc21.O=S(=O)(O)c1ccccc1 [compound of formula (I) besylate]
1000

====

procedure details: Observed solubility of compound of formula (I) besylate in solvents
Type: physicochemical
conditions used: organic solvent or mixture; Dichloromethane; approximate
Text: The compound also has an excess of Hydrogen bond acceptors and therefore will be suitably partnered by Hydrogen bond donating solvents. It is thus expected that the compound will prefer solubilisation in a range of polar organic solvents such as the alcohols, particularly those which provide a partially lipophillic, Hydrogen bond donating environment. This has been borne out by experimental evidence (details of solvents used are given in Example 8): […]
recorded endpoint: solubility

Could you share which solubility value was measured for COC(=O)CC[C@@H]1N=C(c2ccccn2)c2cc(Br)ccc2-n2c(C)cnc21.O=S(=O)(O)c1ccccc1 [compound of formula (I) besylate] ?
< 300 µg/mL

====

procedure details: pKa determination (potentiometric titration, Sirius GlpKa)
Format: physicochemical
conditions used: MeOH:H2O mixtures, MeOH:H2O mixtures at 25° C., extrapolated to 0% co-solvent; read-out: pKa of the basic centre of the imidazole ring
recorded endpoint: pKa

// pKa lookup, key: `COC(=O)CC[C@@H]1N=C(c2ccccn2)c2cc(Br)ccc2-n2c(C)cnc21`
~5
